System: human apolipoprotein B mRNA
Test: Inhibition of human apolipoprotein B mRNA levels in HepG2 cells, quantitative real-time PCR
Assay type: cell-based
Settings: Table 1; HepG2 cells, 150 nM; averages from two experiments
In the oligonucleotide strings, read from the 5' end, every base follows the letter of its sugar. An asterisk marks phosphorothioate; unmarked linkages are phosphodiester. Other units and linkages are bracketed, terminal groups are in braces. A string of capitals states the bases alone. e = 2'-O-(2-methoxyethyl) (MOE); [5mC] = 5-methylcytosine; d = 2'-deoxy (DNA)
The reader will find reported % INHIB values listed item by item below.
MEASUREMENT_TYPE: % INHIB (%)

{"SUBSTANCE": "147826 (antisense eT*e[5mC]*eA*eG*eG*dG*dT*dG*dA*dG*d[5mC]*d[5mC]*d[5mC]*dT*dG*eT*eG*eT*eG*eT) [compound 147826]", "UNIT_TAG": "%", "ASSAY_VALUE": 80}
{"SUBSTANCE": "147786 (antisense e[5mC]*eT*eT*eG*eA*dA*dT*d[5mC]*dA*dG*d[5mC]*dA*dG*dT*d[5mC]*e[5mC]*e[5mC]*eA*eG*eG) [compound 147786]", "UNIT_TAG": "%", "ASSAY_VALUE": 34}
{"SUBSTANCE": "147807 (antisense eG*eG*e[5mC]*eG*eT*dA*dG*dA*dG*dA*d[5mC]*d[5mC]*d[5mC]*dA*dT*e[5mC]*eA*e[5mC]*eA*eT) [compound 147807]", "UNIT_TAG": "%", "ASSAY_VALUE": 25}

====

Test system: human apolipoprotein B mRNA
Experiment: Inhibition of human apolipoprotein B mRNA levels in HepG2 cells, quantitative real-time PCR
Assay type: cell-based
Conditions: Table 2; HepG2 cells, 250 nM
In the oligonucleotide strings, read from the 5' end, every base follows the letter of its sugar. An asterisk marks phosphorothioate; unmarked linkages are phosphodiester. Other units and linkages are bracketed, terminal groups are in braces. A string of capitals states the bases alone. e = 2'-O-(2-methoxyethyl) (MOE); [5mC] = 5-methylcytosine; d = 2'-deoxy (DNA)

{"SUBSTANCE": "147806 (antisense eA*eT*eG*eT*eG*dG*dT*dA*dA*d[5mC]*dG*dA*dG*d[5mC]*d[5mC]*e[5mC]*eG*eA*eA*eG) [compound 147806]", "Percent Inhibition 250 nM": "28%"}
{"SUBSTANCE": "147788 (antisense eT*eT*eT*e[5mC]*eT*dG*dT*dT*dG*d[5mC]*d[5mC]*dA*d[5mC]*dA*dT*eT*eG*e[5mC]*e[5mC]*e[5mC]) [compound 147788]", "Percent Inhibition 250 nM": "72%"}
{"SUBSTANCE": "147816 (antisense eT*e[5mC]*eA*eT*eA*d[5mC]*dG*dT*dT*dT*dA*dG*d[5mC]*d[5mC]*d[5mC]*eA*eA*eT*e[5mC]*eT) [compound 147816]", "Percent Inhibition 250 nM": "65%"}
{"SUBSTANCE": "147820 (antisense eG*eA*eA*e[5mC]*eA*d[5mC]*dA*dT*dA*dG*d[5mC]*d[5mC]*dG*dA*dA*eT*eG*e[5mC]*e[5mC]*eG) [compound 147820]", "Percent Inhibition 250 nM": "73%"}

====

Tested on: mouse apolipoprotein B mRNA
Test: Inhibition of mouse apolipoprotein B mRNA levels in primary mouse hepatocytes, real-time PCR
Type: cell-based
Conditions: Table 4, 150 nM
In the oligonucleotide strings, read from the 5' end, every base follows the letter of its sugar. An asterisk marks phosphorothioate; unmarked linkages are phosphodiester. Other units and linkages are bracketed, terminal groups are in braces. A string of capitals states the bases alone. e = 2'-O-(2-methoxyethyl) (MOE); [5mC] = 5-methylcytosine; d = 2'-deoxy (DNA)
MEASUREMENT_TYPE: Percent Inhibition 150 nM (%)

{"SUBSTANCE": "147776 (antisense eG*e[5mC]*eT*eT*eG*dA*dA*dG*dT*dT*d[5mC]*dA*dT*dT*dG*eA*eG*eA*eA*eT) [compound 147776]", "SYSTEM": "mouse apolipoprotein B mRNA", "MEASUREMENT_TYPE": "Percent Inhibition 150 nM", "UNIT_TAG": "%", "ASSAY_VALUE": 17}
{"SUBSTANCE": "147764 (eG*eT*e[5mC]*e[5mC]*e[5mC]*dT*dG*dA*dA*dG*dA*dT*dG*dT*d[5mC]*eA*eA*eT*eG*e[5mC]) [compound 147764]", "SYSTEM": "mouse apolipoprotein B mRNA", "MEASUREMENT_TYPE": "Percent Inhibition 150 nM", "UNIT_TAG": "%", "ASSAY_VALUE": 84}
{"SUBSTANCE": "147483 (ATGTCAATGCCACATGTCCA; phosphorothioate, 2'-MOE wings, chemistry not fully specified) [compound 147483]", "SYSTEM": "mouse apolipoprotein B mRNA", "MEASUREMENT_TYPE": "Percent Inhibition 150 nM", "UNIT_TAG": "%", "ASSAY_VALUE": 88}
{"SUBSTANCE": "147769 (e[5mC]*eA*eT*eG*e[5mC]*d[5mC]*dT*dG*dG*dA*dA*dG*d[5mC]*d[5mC]*dA*eG*eT*eG*eT*e[5mC]) [compound 147769]", "SYSTEM": "mouse apolipoprotein B mRNA", "MEASUREMENT_TYPE": "Percent Inhibition 150 nM", "UNIT_TAG": "%", "ASSAY_VALUE": 14}

====

Assay: ob/ob mice (Example 50): cholesterol, lipid, triglyceride, liver enzyme and glucose levels
Assay type: in vivo, mouse
Details: high fat high cholesterol diet, 50 mg/kg i.p. twice a week, six weeks
In the oligonucleotide strings, read from the 5' end, every base follows the letter of its sugar. An asterisk marks phosphorothioate; unmarked linkages are phosphodiester. Other units and linkages are bracketed, terminal groups are in braces. A string of capitals states the bases alone. e = 2'-O-(2-methoxyethyl) (MOE); [5mC] = 5-methylcytosine; d = 2'-deoxy (DNA)
The reader will find reported Lipoproteins CHOL values listed item by item below.

{"SUBSTANCE": "147764 (eG*eT*e[5mC]*e[5mC]*e[5mC]*dT*dG*dA*dA*dG*dA*dT*dG*dT*d[5mC]*eA*eA*eT*eG*e[5mC]) [compound 147764]", "Lipoproteins CHOL [mg/dL]": 286.3}
{"SUBSTANCE": "116847 (antisense CTGCTAGCCTCTGGATTTGA; listed as DNA, chemistry not given here) [compound 116847]", "Lipoproteins CHOL [mg/dL]": 287.5}
{"SUBSTANCE": "141923 (CCTTCCCTGAAGGTTCCTCC; listed as DNA, chemistry not given here) [compound 141923]", "Lipoproteins CHOL [mg/dL]": 646.3}
{"SUBSTANCE": "147483 (ATGTCAATGCCACATGTCCA; phosphorothioate, 2'-MOE wings, chemistry not fully specified) [compound 147483]", "Lipoproteins CHOL [mg/dL]": 250.0}
